study target: Glycogen synthase kinase-3 beta (Homo sapiens)
Sequence (P49841 whole entry): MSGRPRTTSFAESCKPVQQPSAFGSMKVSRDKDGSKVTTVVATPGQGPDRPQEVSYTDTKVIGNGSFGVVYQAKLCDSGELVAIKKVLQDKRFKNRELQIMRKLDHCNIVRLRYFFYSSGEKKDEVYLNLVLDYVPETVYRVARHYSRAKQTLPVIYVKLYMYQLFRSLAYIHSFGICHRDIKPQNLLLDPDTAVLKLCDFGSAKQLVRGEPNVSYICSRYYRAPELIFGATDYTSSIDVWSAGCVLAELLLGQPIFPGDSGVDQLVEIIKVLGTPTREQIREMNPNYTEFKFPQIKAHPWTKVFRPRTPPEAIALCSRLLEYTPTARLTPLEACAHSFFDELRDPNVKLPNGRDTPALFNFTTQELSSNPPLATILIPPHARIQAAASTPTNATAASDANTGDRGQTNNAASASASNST
property measured: IC50 (nM)
Write the answer as a number in nM, unit excluded.

Challenge: Value lookup for IC50; key = COc1ccc(CSc2nnc(-c3ccc4nccn4c3)o2)cc1C(F)(F)F [oxadiazole derivative, 20q]
Response given: 6.5

Data provenance is BindingDB's records for doi:10.1016/j.bmc.2009.01.019.
